Reference for the values: paper PMC12820563

- Target: MBP-FoxP3dN (Mus musculus, UniProt Q99JB6 188-423)
- Sequence: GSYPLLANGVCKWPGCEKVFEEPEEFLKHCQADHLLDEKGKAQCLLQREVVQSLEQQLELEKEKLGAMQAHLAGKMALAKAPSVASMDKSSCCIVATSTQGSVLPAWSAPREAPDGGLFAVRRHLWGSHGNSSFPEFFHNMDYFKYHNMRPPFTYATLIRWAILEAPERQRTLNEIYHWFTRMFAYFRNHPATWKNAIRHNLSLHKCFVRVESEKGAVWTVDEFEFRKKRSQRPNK
- Method Notes: PD-seq (MBP pull-down with sequencing); 20 mM Tris-HCl pH 7.5, 100 mM NaCl, 1.5 mM MgCl2, 0.4 uM protein, 0.1 uM dsDNA library, 30 min, room temperature, amylose pull-down; high values mean tight binding
- Condition Description: protein: recombinant; tags: His6-MBP; chain copies: 2; dsDNA, one strand shown
The full ranking holds about 16,000 sequences; the median of “rpm ratio (pull-down/input)” is about 0.5, and the highest 2% start at about 5.5. Shown is part of a subset that was picked to be rich in the highest values.
Metric Name: binding signal

{"columns": ["Biopolymer Sequence", "binding signal"],
 "data": [
  ["GATGATTGTTCTCCCAGCTGATGAATTGTCCCTGTCGAGTAAACAAATTTTCCTAATCTTTCTGTTCAAGCGCCATCTAC", "0.319 RPM ratio (pull-down/input)"],
  ["GATGATTGTTCTCCCAGCTGATGAATTTTGTCATTCGAGTAAACAAATTTTCCTAATCTTTCTGTTCAAGCGCCATCTAC", "4.89 RPM ratio (pull-down/input)"],
  ["GATGATTGTTCTCCCAGCTGATGAATTTGTCATCTCGAGTAAACAAATTTTCCTAATCTTTCTGTTCAAGCGCCATCTAC", "6.03 RPM ratio (pull-down/input)"],
  ["GATGATTGTTCTCCCAGCTGATGAATTGTCATTTTCGAGTAAACAAATTTTCCTAATCTTTCTGTTCAAGCGCCATCTAC", "0.999 RPM ratio (pull-down/input)"],
  ["GATGATTGTTCTCCCAGCTGATGAATTGGTTGCATCGAGTAAACAAATTTTCCTAATCTTTCTGTTCAAGCGCCATCTAC", "2.53 RPM ratio (pull-down/input)"],
  ["GATGATTGTTCTCCCAGCTGATGAATTATTGCGATCGAGTAAACAAATTTTCCTAATCTTTCTGTTCAAGCGCCATCTAC", "1.08 RPM ratio (pull-down/input)"],
  ["GATGATTGTTCTCCCAGCTGATGAATTAATCTATTCGAGTAAACAAATTTTCCTAATCTTTCTGTTCAAGCGCCATCTAC", "0.398 RPM ratio (pull-down/input)"],
  ["GATGATTGTTCTCCCAGCTGATGAATTGTTTGCATCGAGTAAACAAATTTTCCTAATCTTTCTGTTCAAGCGCCATCTAC", "6.03 RPM ratio (pull-down/input)"]
]}

// moving on: another record for binding signal
[ask] Request body: readout binding signal, system MBP-FoxP3dN (Mus musculus, UniProt Q99JB6 188-423), query GATGATTGTTCTCCCAGCTGATGAATTGACACATTCGAGTAAACAAATTTTCCTAATCTTTCTGTTCAAGCGCCATCTAC . Return the value.
[reply] 0.772 RPM ratio (pull-down/input)
